koff values, listed per item
target-under-test: T1, human DLL3 antigen protein (Kactus Biosystems, Cat. No. DLL-HM103) (human, UniProt Q9NYJ7 27-492)
T1 sequence: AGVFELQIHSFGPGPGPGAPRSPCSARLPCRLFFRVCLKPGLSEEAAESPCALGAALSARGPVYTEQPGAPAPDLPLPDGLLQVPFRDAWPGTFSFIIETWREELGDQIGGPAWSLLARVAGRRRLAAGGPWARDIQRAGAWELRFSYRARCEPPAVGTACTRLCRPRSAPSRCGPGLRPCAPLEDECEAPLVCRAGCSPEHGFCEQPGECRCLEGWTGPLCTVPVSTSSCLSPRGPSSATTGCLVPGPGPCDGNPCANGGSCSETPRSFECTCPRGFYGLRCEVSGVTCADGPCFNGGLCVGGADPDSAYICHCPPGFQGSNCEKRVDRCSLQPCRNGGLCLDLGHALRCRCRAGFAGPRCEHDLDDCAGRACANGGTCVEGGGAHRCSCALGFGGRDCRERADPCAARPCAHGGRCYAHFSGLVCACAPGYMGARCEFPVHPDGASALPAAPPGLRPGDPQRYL
test-protocol: affinity assay with human DLL3 antigen protein (kinetics; method not restated, Biacore as in Example 18 implied)
Only the number, expressed in s⁻¹, is required.

Here are 3 binders together with their reported answers.
>>> observed_result("H2-39E2D11-NA humanized antibody variant (antibody, V domains shown, Variant of H2-39E2D11; Its constant regions are not restated) VH: QVQLVQSGAEVKKPGASVKVSCKASGYTFISYWITWVRQAPGQGLEWMGDIYPGSGSTTNYNEKFKSRVTMTRDTSTSTVYMELSSLRSEDTAVYYCARETTVGGAYAMDYWGQGTLVTVSS VL: EIVLTQSPATLSLSPGERATLSCRASQSINNNLHWYQQKPGQAPRLLIKYVSQSISGIPARFSGSGSGTDFTLTISSLEPEDFAVYYCQQTNAWPLTFGGGTKLEIK")
0.00012
>>> observed_result("H2-39E2D11-QS humanized antibody variant (antibody, V domains shown, Variant of H2-39E2D11; Its constant regions are not restated) VH: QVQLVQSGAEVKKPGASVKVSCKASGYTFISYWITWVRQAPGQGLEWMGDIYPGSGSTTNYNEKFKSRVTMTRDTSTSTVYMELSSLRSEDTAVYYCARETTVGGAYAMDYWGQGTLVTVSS VL: EIVLTQSPATLSLSPGERATLSCRASQSINNNLHWYQQKPGQAPRLLIKYVSQSISGIPARFSGSGSGTDFTLTISSLEPEDFAVYYCQQTQSWPLTFGGGTKLEIK")
"3.91e-05"
>>> observed_result("H2-39E2D11 mouse hybridoma-derived humanized anti-DLL3 antibody (antibody, V domains shown) VH: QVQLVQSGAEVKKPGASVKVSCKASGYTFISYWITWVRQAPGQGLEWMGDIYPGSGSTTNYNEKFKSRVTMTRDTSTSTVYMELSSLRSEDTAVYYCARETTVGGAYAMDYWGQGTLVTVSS VL: EIVLTQSPATLSLSPGERATLSCRASQSINNNLHWYQQKPGQAPRLLIKYVSQSISGIPARFSGSGSGTDFTLTISSLEPEDFAVYYCQQTNSWPLTFGGGTKLEIK")
0.000134

Answer with the recorded koff for the binder listed here: H2-39E2D11-AS humanized antibody variant (antibody, V domains shown, Variant of H2-39E2D11; Its constant regions are not restated) VH: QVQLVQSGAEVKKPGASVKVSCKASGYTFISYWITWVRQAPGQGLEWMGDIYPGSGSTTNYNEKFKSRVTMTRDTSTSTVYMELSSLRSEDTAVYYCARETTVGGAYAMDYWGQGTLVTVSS VL: EIVLTQSPATLSLSPGERATLSCRASQSINNNLHWYQQKPGQAPRLLIKYVSQSISGIPARFSGSGSGTDFTLTISSLEPEDFAVYYCQQTASWPLTFGGGTKLEIK
0.000362
